Source of measurements: patent US11104663B2

- Type: physicochemical
- DETAILS: particle size, 10th percentile
Below, each of the compounds is paired with its reported d10 value.
ATTRIBUTE MEASURED: d10

1) O=C(O)c1cn(C2CC2)c2cc(N3CCNCC3)c(F)cc2c1=O [Example 2 processed Batch 3] | 1.19 μm
2) O=C(O)c1cn(C2CC2)c2cc(N3CCNCC3)c(F)cc2c1=O [Example 2 processed Batch 2] | 1.79 μm
3) O=C(O)c1cn(C2CC2)c2cc(N3CCNCC3)c(F)cc2c1=O [Example 2 processed Batch 1] | 1.62 μm
4) O=C(O)c1cn(C2CC2)c2cc(N3CCNCC3)c(F)cc2c1=O [Ciprofloxacin Raw material, reference compound] | 1.44 μm
